# EXPERIMENTAL TARGET: human RXFP1 (Homo sapiens, UniProt Q9HBX9)
# Sequence (Q9HBX9 1-757): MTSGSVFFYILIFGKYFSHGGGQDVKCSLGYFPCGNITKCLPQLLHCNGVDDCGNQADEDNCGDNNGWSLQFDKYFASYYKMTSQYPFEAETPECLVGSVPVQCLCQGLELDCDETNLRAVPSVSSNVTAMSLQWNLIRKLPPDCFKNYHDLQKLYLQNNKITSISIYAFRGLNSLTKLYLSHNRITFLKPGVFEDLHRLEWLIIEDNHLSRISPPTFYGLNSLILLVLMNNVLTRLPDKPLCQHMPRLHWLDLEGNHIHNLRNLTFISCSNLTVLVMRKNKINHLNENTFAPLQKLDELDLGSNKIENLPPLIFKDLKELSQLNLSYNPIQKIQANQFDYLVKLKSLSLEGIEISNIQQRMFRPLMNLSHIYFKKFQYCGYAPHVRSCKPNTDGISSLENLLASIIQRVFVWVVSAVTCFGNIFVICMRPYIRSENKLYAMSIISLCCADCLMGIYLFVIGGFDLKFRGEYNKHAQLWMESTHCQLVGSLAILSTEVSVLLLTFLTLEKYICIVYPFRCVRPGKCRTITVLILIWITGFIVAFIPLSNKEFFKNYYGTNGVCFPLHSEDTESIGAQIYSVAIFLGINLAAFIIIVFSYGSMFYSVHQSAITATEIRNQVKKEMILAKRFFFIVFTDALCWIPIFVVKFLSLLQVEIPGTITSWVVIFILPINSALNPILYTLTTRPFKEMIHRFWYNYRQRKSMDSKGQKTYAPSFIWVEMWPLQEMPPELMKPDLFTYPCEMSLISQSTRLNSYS
# MEASUREMENT NOTES: RXFP1 Hu cAMP (Test A)
# Format: cell-based
# Set-up: expressed in transfected cells; host or cells: Jump-In T-REx CHO-K1 cells (ThermoFisher), induced with 10 ng/ml doxycycline for 24 h
# RUN PARAMETERS: RXFP1 Hu cAMP; read-out: Test A EC50
pEC50: −log10 of the molar value.
MEASURED QUANTITY: pEC50

>>> assay_result("COc1cc(F)c(O[C@H]2CC[C@@H](S(N)(=O)=O)CC2)cc1C(=O)N[C@@H]1[C@@H]2CC[C@@H](C2)[C@@H]1C(=O)Nc1cccc(S(=O)(=O)C(F)(F)F)c1 [Example 463]")
6.47

(a) COc1cc(F)c(O[C@H]2CC[C@@](C)(C(N)=O)CC2)cc1C(=O)N[C@@H]1[C@@H]2CC[C@@H](C2)[C@@H]1C(=O)NCC1(C)CCC1 [Example 421]
(b) COc1cc(C#N)c(O[C@H]2CC[C@@](C)(C(=O)O)CC2)cc1C(=O)Nc1cc(Cl)ccc1C(=O)N[C@H](C)C(C)(C)F [Example 162]
(c) COc1cc(F)c(O[C@H]2CC[C@H](NS(C)(=O)=O)CC2)cc1C(=O)N[C@@H]1[C@H]2CC[C@H](C2)[C@@H]1C(=O)Nc1cccc(S(=O)(=O)C(F)(F)F)c1 [Example 460]
(d) COc1ccc(-c2cc(C(=O)N[C@H]3[C@@H](C(=O)Nc4cccc(S(=O)(=O)C(F)(F)F)c4)[C@@H]4C=C[C@H]3C4)c(OC)cc2F)cc1C(=O)O (racemic) [Example 230]
Incoming: // smallest pEC50 at index 0, largest at the end Enter labels, ranked according to the request.
Outgoing: d, c, b, a
